The measured values listed here are drawn from patent US20060276464A1.

tgt: SFRP-1 (Homo sapiens, UniProt Q8N474)
experimentalDetails: Cell-based assay for in vitro measurement of SFRP-1/SARP2 antagonist activity (U2OS cells co-transfected with 16x TCF-tk-Luciferase reporter, Wnt and hSFRP-1)
measurementSetup: U2OS, read-out: Fold Induction with SFRP-1, Conc 20 μM; with SFRP-1; fold induction over SFRP-1 control, single dose
Would you kindly list fold induction at 20 µM for each of these compounds?
Give a plain numeric answer without units written out.

Ask: Which fold induction at 20 µM value belongs to Cc1ccc(S(=O)(=O)c2ccccc2)cc1S(=O)(=O)NC[C@H](C)c1ccccc1 ?
Reply: 2.8

Ask: // query: O=S(=O)(NC1Cc2ccccc2C1)c1cccc(S(=O)(=O)c2ccccc2)c1
Reply: 1.2

Ask: // query: Cc1ccc(S(=O)(=O)c2ccc(F)cc2)cc1S(=O)(=O)NC[C@H](C)c1ccccc1
Reply: 3

Ask: // query: Cc1ccc(S(=O)(=O)c2ccc(C)c(S(=O)(=O)NC[C@H](C)c3ccccc3)c2)cc1
Reply: 3

Ask: // query: Cc1ccc(S(=O)(=O)c2ccc(F)cc2)cc1S(=O)(=O)N[C@H]1C[C@@H]1c1ccccc1
Reply: 1.4

Ask: // query: Cc1ccc(S(=O)(=O)c2ccc(C)c(S(=O)(=O)N[C@H]3C[C@@H]3c3ccccc3)c2)cc1
Reply: 1.4

Ask: // query: C[C@@H](CNS(=O)(=O)c1cccc(S(=O)(=O)c2ccccc2)c1)c1ccccc1
Reply: 1.2

Ask: // query: O=S(=O)(N[C@H]1C[C@@H]1c1ccccc1)c1cccc(S(=O)(=O)c2ccccc2)c1
Reply: 1

Ask: // query: Cc1ccc(S(=O)(=O)c2ccccc2)cc1S(=O)(=O)N[C@H]1C[C@@H]1c1ccccc1
Reply: 1.7

Ask: // query: Cc1ccc(S(=O)(=O)c2ccc(Cl)cc2)cc1S(=O)(=O)NC[C@H](C)c1ccccc1
Reply: 2.4

Ask: // query: Cc1ccc(S(=O)(=O)c2ccc(F)cc2)cc1S(=O)(=O)NC1Cc2ccccc2C1
Reply: 1.9

###

tgt: UniProt Q8N474
experimentalDetails: Cell-based assay for in vitro measurement of SFRP-1/SARP2 antagonist activity (U2OS cells co-transfected with 16x TCF-tk-Luciferase reporter, Wnt and hSFRP-1)
measurementSetup: Conc 15 μM; without SFRP-1, single dose
Would you kindly list Fold Induction without SFRP-1 for each of these compounds?
Note: unit fold is implicit; provide only the numeric part.

Ask: Which Fold Induction without SFRP-1 value belongs to CCc1ccc(S(=O)(=O)c2ccccc2)cc1S(=O)(=O)NCCCn1ccnc1 ?
Reply: 0.8

Ask: // query: COCCCNS(=O)(=O)c1cc(S(=O)(=O)c2ccc(F)cc2)ccc1C
Reply: 1

Ask: // query: Cc1ccc(S(=O)(=O)c2ccc(Cl)cc2)cc1S(=O)(=O)NC[C@@H](C)c1ccccc1
Reply: 1

Ask: // query: Cc1ccc(S(=O)(=O)c2ccc(F)cc2)cc1S(=O)(=O)NCCc1ccccn1
Reply: 1

Ask: // query: Cc1ccc(S(=O)(=O)c2ccccc2)cc1S(=O)(=O)NC(C)C(O)c1ccccc1 (stereo not drawn)
Reply: 1.1

Ask: // query: Cc1ccc(S(=O)(=O)c2ccc(F)cc2)cc1S(=O)(=O)NC(C)C(O)c1ccccc1 (stereo not drawn)
Reply: 1.1

###

tgt: SFRP-1 (Homo sapiens, UniProt Q8N474)
experimentalDetails: Cell-based assay for in vitro measurement of SFRP-1/SARP2 antagonist activity (U2OS cells co-transfected with 16x TCF-tk-Luciferase reporter, Wnt and hSFRP-1)
measurementSetup: U2OS, read-out: Fold Induction with SFRP-1, Conc 15 μM; with SFRP-1; fold induction over SFRP-1 control, single dose
reportedProperty: fold induction at 15 µM
Give a plain numeric answer without units written out.

Ask: Which fold induction at 15 µM value belongs to Cc1ccc(S(=O)(=O)c2ccc(F)cc2)cc1S(=O)(=O)NCC(O)c1ccccc1 (centres unmarked) ?
Reply: 1.7

Ask: // query: Cc1ccc(S(=O)(=O)c2ccccc2)cc1S(=O)(=O)N1CCN(CCCN2CCOCC2)CC1
Reply: 1.8

Ask: // query: Cc1ccc(S(=O)(=O)c2ccccc2)cc1S(=O)(=O)NCCC1CCCN1C (centres unmarked)
Reply: 2.3

Ask: // query: Cc1ccc(S(=O)(=O)c2ccccc2)cc1S(=O)(=O)NCCN1CCCCC1
Reply: 2.2

Ask: // query: Cc1ccc(S(=O)(=O)c2ccccc2)cc1S(=O)(=O)NC(C)(C)C
Reply: 1.2

Ask: // query: Cc1ccc(S(=O)(=O)c2cc(Cl)cc(Cl)c2)cc1S(=O)(=O)NCCCn1ccnc1
Reply: 2.2

Ask: // query: O=S(=O)(NCCc1ccccn1)c1cc(S(=O)(=O)c2ccccc2)ccc1C1CCCCC1
Reply: 1.6

Ask: // query: CC(C)c1ccc(S(=O)(=O)c2ccc(C(C)(C)C)cc2)cc1S(=O)(=O)NC1CCOCC1
Reply: 2.2

Ask: // query: Cc1ccc(S(=O)(=O)c2ccccc2)cc1S(=O)(=O)N1CCN(CCN2CCCC2)CC1
Reply: 2.4

Ask: // query: COc1ccccc1C(=O)N1CCC(NS(=O)(=O)c2cc(S(=O)(=O)c3ccccc3)ccc2C)CC1
Reply: 2.9

Ask: // query: COc1ccc(S(=O)(=O)c2ccccc2)cc1S(=O)(=O)N[C@H]1C[C@@H]1c1ccccc1
Reply: 1.5

###

tgt: SFRP-1 (Homo sapiens, UniProt Q8N474)
Sequence (Q8N474 32-314): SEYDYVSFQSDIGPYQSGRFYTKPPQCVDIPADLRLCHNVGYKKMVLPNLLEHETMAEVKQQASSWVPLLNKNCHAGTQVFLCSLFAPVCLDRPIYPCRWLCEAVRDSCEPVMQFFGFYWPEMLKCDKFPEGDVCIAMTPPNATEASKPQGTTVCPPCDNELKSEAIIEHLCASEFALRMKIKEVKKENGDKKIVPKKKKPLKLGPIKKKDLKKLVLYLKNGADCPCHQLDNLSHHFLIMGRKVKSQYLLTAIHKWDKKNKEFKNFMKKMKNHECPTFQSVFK
experimentalDetails: Cell-based assay for in vitro measurement of SFRP-1/SARP2 antagonist activity (U2OS cells co-transfected with 16x TCF-tk-Luciferase reporter, Wnt and hSFRP-1);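 note: U2OS cells co-transfected with a TCF-tk luciferase reporter, a Wnt vector, hSFRP-1 or empty vector and CMV-βgal, luciferase luminescence read in cell lysates alongside βgal activity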
measurementSetup: U2OS, read-out: Fold Induction without SFRP-1, Conc 15 μM; without SFRP-1, single dose
reportedProperty: fold induction at 15 µM
Give a plain numeric answer without units written out.

Ask: Find the measured fold induction at 15 µM: item Cc1cc(C)c(S(=O)(=O)c2ccccc2)cc1S(=O)(=O)NCCCn1ccnc1 , target or system SFRP-1 (Homo sapiens, UniProt Q8N474).
Reply: 1.1

Ask: // query: Cc1ccc(S(=O)(=O)c2ccc(C#N)cc2)cc1S(=O)(=O)NCCc1ccccn1
Reply: 0.8

Ask: // query: Cc1ccc(S(=O)(=O)c2cccc(-c3ccccc3)c2)cc1S(=O)(=O)NCCc1ccccn1
Reply: 1.1

Ask: // query: Cc1ccc(S(=O)(=O)c2ccccc2)cc1S(=O)(=O)N1CCN(CC(=O)N2CCCC2)CC1
Reply: 1

###

Would you kindly list melting point for each of these compounds?

Ask: Which melting point value belongs to CC(C)c1ccc(S(=O)(=O)c2ccccc2)cc1S(=O)(=O)NC1CCN(C(=O)c2ccc(C#N)cc2)CC1 [Example 811] ?
Reply: 136 to 138 °C

Ask: // query: CC(C)c1ccc(S(=O)(=O)c2ccccc2)cc1S(=O)(=O)NC1CCN(C(=O)c2ccccc2)CC1 [Example 802]
Reply: 225 °C

Ask: // query: COc1ccc(S(=O)(=O)c2ccccc2)cc1S(=O)(=O)NC1CCOCC1 [Example 689]
Reply: 176 to 178 °C

Ask: // query: CN1[C@@H]2CC[C@H]1CC(NS(=O)(=O)c1cc(S(=O)(=O)c3ccccc3)ccc1C(F)(F)F)C2 (relative stereo) [Example 1035]
Reply: 154 to 157 °C

Ask: // query: CC(C)c1cc(C(C)C)c(S(=O)(=O)c2ccc(F)cc2)cc1S(=O)(=O)NC1CCOCC1 [Example 620]
Reply: 183 to 186 °C

Ask: // query: CC(C)c1cc(C(C)C)c(S(=O)(=O)c2ccccc2)cc1S(=O)(=O)NCC1CCOCC1 [Example 611]
Reply: 148 to 150 °C

Ask: // query: CCCc1ccc(S(=O)(=O)c2ccccc2)cc1S(=O)(=O)NCCCn1ccnc1 [Example 556]
Reply: 143 to 146 °C

Ask: // query: CC(C)c1ccc(S(=O)(=O)c2ccccc2)cc1S(=O)(=O)NC1CCN(C(=O)c2cccc3ccccc23)CC1 [Example 808]
Reply: 163 to 165 °C

Ask: // query: CC(C)c1ccc(S(=O)(=O)c2ccccc2)cc1S(=O)(=O)NC1CCN(C(=O)c2ccc(C(F)(F)F)cc2)CC1 [Example 807]
Reply: 140 to 142 °C

Ask: // query: CC(C)c1cc(C(C)C)c(S(=O)(=O)c2ccc(F)cc2)cc1S(=O)(=O)NCCc1ccncc1 [Example 633]
Reply: 210 to 211 °C

Ask: // query: CC(C)c1cc(C(C)C)c(S(=O)(=O)c2ccccc2)cc1S(=O)(=O)NCCc1cccnc1 [Example 616]
Reply: 163 to 165 °C

Ask: // query: COc1ccc(S(=O)(=O)c2ccccc2)cc1S(=O)(=O)NCCc1cccnc1 [Example 678]
Reply: 181 to 183 °C

Ask: // query: CCCc1ccc(S(=O)(=O)c2ccc(F)cc2)cc1S(=O)(=O)NCCc1ccncc1 [Example 875]
Reply: 160 to 162 °C

Ask: // query: CC(C)c1cc(C(C)C)c(S(=O)(=O)c2ccc(F)cc2)cc1S(=O)(=O)NCC1CCOCC1 [Example 629]
Reply: 200 to 202 °C

Ask: // query: CCCc1ccc(S(=O)(=O)c2ccc(F)cc2)cc1S(=O)(=O)NC1CCN(C(=O)OC(C)(C)C)CC1 [Example 567]
Reply: 151 to 153 °C

Ask: // query: O=S(=O)(NCCc1ccccn1)c1cc(S(=O)(=O)c2ccccc2)ccc1C(F)(F)F [Example 571]
Reply: 149 to 151 °C

Ask: // query: CCCc1ccc(S(=O)(=O)c2ccc(F)cc2)cc1S(=O)(=O)NCCc1ccccn1 [Example 564]
Reply: 113 to 115 °C

Ask: // query: CC(C)c1cc(C(C)C)c(S(=O)(=O)c2ccccc2)cc1S(=O)(=O)NC1CCOCC1 [Example 610]
Reply: 159 to 160 °C

Ask: // query: CC(C)c1cc(C(C)C)c(S(=O)(=O)c2ccccc2)cc1S(=O)(=O)NC1Cc2ccccc2C1 [Example 618]
Reply: 215 to 217 °C

Ask: // query: CC(C)c1cc(C(C)C)c(S(=O)(=O)c2ccc(F)cc2)cc1S(=O)(=O)NC1CCCC1 [Example 621]
Reply: 202 to 205 °C

Ask: // query: CC(C)c1ccc(S(=O)(=O)c2ccccc2)cc1S(=O)(=O)NC1C[C@H]2CC[C@@H](C1)N2C.Cl (relative stereo) [Example 860]
Reply: 90 °C

Ask: // query: CC(C)c1cc(C(C)C)c(S(=O)(=O)c2ccc(F)cc2)cc1S(=O)(=O)NCCC1CCOCC1 [Example 630]
Reply: 141 to 143 °C

Ask: // query: COc1ccccc1C(=O)N1CCC(NS(=O)(=O)c2cc(S(=O)(=O)c3ccccc3)ccc2C(C)C)CC1 [Example 803]
Reply: 160 to 162 °C

Ask: // query: CCCc1ccc(S(=O)(=O)c2ccccc2)cc1S(=O)(=O)NC1CCOCC1 [Example 551]
Reply: 131 to 133 °C

Ask: // query: CC(C)c1cc(C(C)C)c(S(=O)(=O)c2ccc(F)cc2)cc1S(=O)(=O)NCCc1cccnc1 [Example 632]
Reply: 148 to 150 °C

Ask: // query: CC(C)c1ccc(S(=O)(=O)c2ccccc2)cc1S(=O)(=O)NC1CCN(C(=O)c2cccc(F)c2)CC1 [Example 804]
Reply: 215 to 218 °C

Ask: // query: CC(C)c1cc(C(C)C)c(S(=O)(=O)c2ccc(F)cc2)cc1S(=O)(=O)NCCc1ccccn1 [Example 631]
Reply: 159 to 161 °C

Ask: // query: CC(C)c1cc(C(C)C)c(S(=O)(=O)c2ccccc2)cc1S(=O)(=O)NCCc1ccncc1 [Example 617]
Reply: 178 to 180 °C

Ask: // query: O=S(=O)(NC1CCOCC1)c1cc(S(=O)(=O)c2ccccc2)ccc1C(F)(F)F [Example 608]
Reply: 155 to 158 °C

Ask: // query: CC(C)c1cc(C(C)C)c(S(=O)(=O)c2ccc(F)cc2)cc1S(=O)(=O)NC1Cc2ccccc2C1 [Example 634]
Reply: 202 to 204 °C
